# Test system: OVCAR-3 ovarian
# Test details: NCI tumour cell line growth inhibition, 48 h
Recorded measurements of TGI, one per entry
Assay endpoint: TGI (µM)

compound_string=c1ccc(Nc2nnc(-c3nsc4ccccc34)o2)cc1 system_tested="OVCAR-3 ovarian" assay_endpoint=TGI readout_relation== reading=45.2
compound_string=CCOC(=O)C(=O)Nc1ccc(Cl)c(C(F)(F)F)c1 system_tested="OVCAR-3 ovarian" assay_endpoint=TGI readout_relation=> reading=100
compound_string=COc1cc2c(cc1OC)-c1c(c3ccc([N+](=O)[O-])cc3c(=O)n1CCCN)C2=O system_tested="OVCAR-3 ovarian" assay_endpoint=TGI readout_relation== reading=18.4
compound_string=Cc1cc2nc3c4cccc(O)c4n(CCN(C)C)c3nc2cc1C system_tested="OVCAR-3 ovarian" assay_endpoint=TGI readout_relation== reading=15.7
compound_string=COc1cc2c(cc1Cl)n([O-])c(C#N)c(N1CCN(c3ccc([N+](=O)[O-])cc3)CC1)[n+]2=O system_tested="OVCAR-3 ovarian" assay_endpoint=TGI readout_relation=> reading=100

====

# Test system: KM12 colon
# Test details: NCI tumour cell line growth inhibition, 48 h
Assay endpoint: TGI

compound=COc1ccc(-c2nc3sc4c(c3c(=O)[nH]2)CCCC4)c2ccccc12 assay_endpoint=TGI reading="> 100 µM"
compound="CCOC(=O)C(C)c1nc2cc(N3CCN(C)CC3)c(F)cc2[nH]c1=O (configuration not stated)" assay_endpoint=TGI reading="> 100 µM"
compound="Cn1c(=O)oc2cc(C3CCC(=O)N3Cc3ccc(Cl)cc3)ccc21 (configuration not stated)" assay_endpoint=TGI reading="> 100 µM"
compound="COc1cc(C2S/C(=C/c3ccccc3)C(=O)N2c2cccc([N+](=O)[O-])c2)cc(OC)c1OC (configuration not stated)" assay_endpoint=TGI reading="> 100 µM"
compound=Cc1cccc2c1C/C(=C\c1cccc(C)c1C(=O)O)C2=O assay_endpoint=TGI reading="> 100 µM"
compound="CC(C)(C)c1cc(C2COC(=O)COCC(=O)OCCOCCOCCO2)cc(C(C)(C)C)c1O (configuration not stated)" assay_endpoint=TGI reading="> 100 µM"
compound=O=C1C=CC(=O)c2c1ncc1c2nc2sccn21 assay_endpoint=TGI reading="> 100 µM"
compound=COC(=O)c1cccc(C(=O)OC)c1 assay_endpoint=TGI reading="> 100 µM"
compound=Cc1n(CC(=O)c2ccccc2)nc2sc(N)n[n+]12 assay_endpoint=TGI reading="> 100 µM"
compound="CC1(C)[C@@H]2C[C@H]1C(Cc1cccc(C[C@H]3c4cc(-c5ccccn5)ncc4[C@H]4C[C@@H]3C4(C)C)c1)c1cc(-c3ccccn3)ncc12 (some centres not stated)" assay_endpoint=TGI reading="> 76.9 µM"
compound="CCOC12SC(=Nc3ccc(C)cc3)NN1C(=S)N(C)N=C2C (configuration not stated)" assay_endpoint=TGI reading="> 100 µM"
compound=O=[N+]([O-])/C=C/c1ccc([N+](=O)[O-])cc1 assay_endpoint=TGI reading="4.71 µM"
compound=Oc1cc(Cl)ccc1Cc1ccc(Cl)cc1O assay_endpoint=TGI reading="28.1 µM"
compound=CCOC(=O)/C(=C\c1ccc(F)cc1)C(C)=O assay_endpoint=TGI reading="69 µM"
compound=COc1ccc(-c2ccccc2)cc1-c1c(Nc2cc(Cl)cc(Cl)c2O)c(=O)c1=O assay_endpoint=TGI reading="> 50 µM"
compound=COc1ccc(-n2c3c(c4c(CN(C)C)c(O)c(C)cc42)CCc2ccccc2C3=O)cc1 assay_endpoint=TGI reading="63.9 µM"
compound=CCOC(=O)c1cnc2cc3cccccc3n2c1=O assay_endpoint=TGI reading="> 100 µM"
compound="C=CCN(CC=C)CC(C(C)=O)C(c1ccccc1)c1c(O)c2ccccc2oc1=O (configuration not stated)" assay_endpoint=TGI reading="37.9 µM"
compound="OCC(O)C(O)C(O)C(/C=N\\Nc1ncnc2ccc(Br)cc12)=N/Nc1ncnc2ccc(Br)cc12 (configuration not stated)" assay_endpoint=TGI reading="> 100 µM"
compound=O=C(/C=C/c1ccccc1O)/C=C/c1ccccc1O assay_endpoint=TGI reading="3.3 µM"
compound=COc1ccccc1NC(=O)CC(=O)NNCC(=O)Nc1nnc(-c2ccccc2)o1 assay_endpoint=TGI reading="> 100 µM"
compound=COc1ccccc1NC(=O)C1=C(C)NC(C)=C(C(=O)Nc2ccccc2OC)C1c1cccc2c1OCO2 assay_endpoint=TGI reading="> 100 µM"

Data origin, for the record: PubChem BioAssay (NCI)
